# Protocol Description: RP-TLC lipophilicity, silica gel C8, methanol-water
# Type: physicochemical
# Test Settings: RP-TLC silica gel C8, slope of Soczewiński–Wachtmeister equation
compounds and their reported b
// return a plain number; no unit text

- Compound: "CCn1cc(C(=O)O)c(=O)c2cc(F)c(N3CC[N+]4(CC3)CN3C(=N4)C(C(=O)O)=Cc4ccccc43)cc21.[Cl-]"
  Measure Name: "b"
  Observed Result: "−1.92"
- Compound: "CCn1cc(C(=O)O)c(=O)c2cc(F)c(N3CCNC(C)C3)c(F)c21 (stereo not shown) [Compound 17, reference compound]"
  Measure Name: "b"
  Observed Result: "−1.54"
- Compound: "CCn1cc(C(=O)O)c(=O)c2cc(F)c(N3CC[N+]4(CC3)CN3C(=N4)C(C(=O)O)=Cc4ccccc43)nc21.[Cl-]"
  Measure Name: "b"
  Observed Result: "−1.43"
- Compound: "CCn1cc(C(=O)O)c(=O)c2cnc(N3CC[N+]4(CC3)CN3C(C)=CC(C)=C(C(=O)O)C3=N4)nc21.[Cl-]"
  Measure Name: "b"
  Observed Result: "−0.91"
- Compound: "CCn1cc(C(=O)O)c(=O)c2cc(F)c(N3CCNCC3)cc21 [Compound 18, reference compound]"
  Measure Name: "b"
  Observed Result: "−1.90"
- Compound: "COc1c(N2CC3CCC[N+]4(CN5C(=N4)C(C(=O)O)=Cc4ccccc45)C3C2)c(F)cc2c(=O)c(C(=O)O)cn(C3CC3)c12.[Cl-] (stereo not shown)"
  Measure Name: "b"
  Observed Result: "−2.88"

If you can, please state the reported b value of CCn1cc(C(=O)O)c(=O)c2cnc(N3CC[N+]4(CC3)CN3C(=N4)C(C(=O)O)=Cc4ccccc43)nc21.[Cl-] .
−0.56

* * *

# Protocol Description: RP-TLC lipophilicity, silica gel C8, methanol-water
# Format: physicochemical
# Test Settings: RP-TLC silica gel C8, first principal component of RM values, contains 83.57% of information
Measure Name: PC1
Form rule: numeric answer, no unit written next to it.

Some compounds with recorded PC1:
- Compound: "CCn1cc(C(=O)O)c(=O)c2cc(F)c(N3CC[N+]4(CC3)CN3C(C)=CC(C)=C(C(=O)O)C3=N4)cc21.[Cl-]"
  PC1: "−0.38"
- Compound: "CCn1cc(C(=O)O)c(=O)c2cc(F)c(N3CC[N+]4(CN5C(=N4)C(C(=O)O)=Cc4ccccc45)C(C)C3)c(F)c21.[Cl-] (stereo not drawn)"
  PC1: "−1.69"

Entry COc1c(N2CC[N+]3(CN4C(=N3)C(C(=O)O)=Cc3ccccc34)C(C)C2)c(F)cc2c(=O)c(C(=O)O)cn(C3CC3)c12.[Cl-] (stereo not drawn) : reported PC1 = ?
−2.22

* * *

Consider the following compounds and their measured C 0 readings.
# Protocol Description: RP-TLC lipophilicity, silica gel C18, methanol-water
# Assay type: physicochemical
# Test Settings: RP-TLC silica gel C18, C0 = −RM^0/b

Use the examples below as a reference point.
- Compound: "CC1CN(c2c(F)c(N)c3c(=O)c(C(=O)O)cn(C4CC4)c3c2F)CC(C)[N+]12CN1C(=N2)C(C(=O)O)=Cc2ccccc21.[Cl-] (stereo not drawn)"
  C 0: 0.88
- Compound: "CC1=CC(C)=C(C(=O)O)C2=N[N+]3(CN12)C(C)CN(c1c(F)c(N)c2c(=O)c(C(=O)O)cn(C4CC4)c2c1F)CC3C.[Cl-] (stereo not drawn)"
  C 0: 0.86
- Compound: "CCn1cc(C(=O)O)c(=O)c2cnc(N3CCNCC3)nc21 [Compound 19, pipemidic acid, reference compound]"
  C 0: 1.35

Recorded C 0 of CCn1cc(C(=O)O)c(=O)c2cc(F)c(N3CCNC(C)C3)c(F)c21 (stereo not drawn) [Compound 17, reference compound] , please.
1.15

Value lookup for C 0; key = CCn1cc(C(=O)O)c(=O)c2cc(F)c(N3CC[N+]4(CN5C(=N4)C(C(=O)O)=Cc4ccccc45)C(C)C3)c(F)c21.[Cl-] (stereo not drawn)
0.93

C 0 for CCn1cc(C(=O)O)c(=O)c2cc(F)c(N3CC[N+]4(CC3)CN3C(C)=CC(C)=C(C(=O)O)C3=N4)cc21.[Cl-] ?
1.00
